Experiment: Permeability across basolateral to apical side in human Caco2 cells
Assay type: ADME, cell-based
Conditions: Caco-2, read-out: permeability
value kind: Papp B→A (×10⁻⁶ cm/s)

(I) C=C[C@@H]1C[C@]1(NC(=O)[C@@H]1C[C@@H](Oc2cc(-c3csc(NC(C)C)n3)nc3c(Br)c(OC)ccc23)CN1C(=O)[C@@H](CC(=O)NC1CCCC1)C(C)(C)C)C(=O)O
(II) C=C[C@@H]1C[C@]1(NC(=O)[C@@H]1C[C@@H](Oc2cc(-c3csc(NC(C)C)n3)nc3c(Br)c(OC)ccc23)CN1C(=O)[C@@H](NC(=O)OC1CCCC1)C(C)(C)C)C(=O)O
So which one has the bigger Papp B→A here, I or II ? In your reply, give the label of the chosen option. I
(I: 10 ×10⁻⁶ cm/s, II: 2 ×10⁻⁶ cm/s)

====

Assay: Half life in rat at 2 mg/kg, iv
Format: ADME, organism-based
Parameters: dose 2 mg/kg, route intravenous
Conditions: in vivo
value kind: half-life (h)
Provide the reading as a plain figure in h.

Given `C=C[C@@H]1C[C@]1(NC(=O)[C@@H]1C[C@@H](Oc2cc(-c3csc(NC(C)C)n3)nc3c(Br)c(OC)ccc23)CN1C(=O)[C@@H](CC(=O)NC1CCCC1)C(C)(C)C)C(=O)O` , state its recorded half-life. 1.4
